B1: CPEB3 Ribozyme (parent)
chain: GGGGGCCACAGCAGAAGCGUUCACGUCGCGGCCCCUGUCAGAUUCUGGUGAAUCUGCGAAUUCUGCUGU

- Variants of: B1
- protocol: self-cleavage, relative activity (ratio to wild type); higher = more cleavage; co-transcriptional
Each record here notes measured self-cleavage.

# variant.name, self-cleavage
rows = [
    ("C29G C32A", 0.196),
    ("G56U C66A", 0.447),
    ("C33G C66U", 0.649),
    ("G50C U62C", 0.763),
    ("C24A U26A", 0.257),
    ("G48U A59C", 0.739),
    ("G2A C63U", 0.173),
    ("G25C G68C", 0.18),
    ("C35U U62A", 0.813),
    ("U38G U43C", 0.161),
    ("U43G G68U", 0.901),
    ("G17C G31U", 0.103),
    ("G37U U49C", 0.335),
    ("C33G U69A", 0.82),
    ("G50U A59U", 0.834),
    ("A60U U69G", 0.614),
    ("G14C C63U", 0.862),
    ("A16U U20A", 0.124),
    ("C12A U55A", 0.23),
    ("G19A U55A", 0.185),
    ("U20A C54G", 0.194),
    ("C29U G48U", 0.583),
    ("A15C G31A", 0.456),
    ("A8C G47A", 1.02),
    ("A42U U69A", 1),
    ("C29G A40U", 0.277),
    ("G3U C24A", 0.0286),
    ("U44G A51U", 0.941),
]

Data origin: the RNAGym collection of RNA variant scans (doi:10.7554/elife.80360)
